// reported yeast fitness per item
B1: tRNA (parent)
chain: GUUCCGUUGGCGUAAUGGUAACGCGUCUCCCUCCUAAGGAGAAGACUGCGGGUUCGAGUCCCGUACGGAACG

Variants of: B1
Experiment: yeast fitness relative to wild type (ratio to wild type); higher = fitter; tRNA-Arg(CCU), competitive growth, 37 C, YPD
Variants at the floor of the assay were thinned out.

GUUCUGUUGGCGUAAUGCUAACGCGCCUCUGUCCUAAGGAGAAGACUGCGGGUUCGAGUCCCGUACGGACCG [C5U G18C U26C C30U C31G A70C] | ≤ 0.5
GUUCCGUUGGUGUAAUGAUAACGCGUCUCCCUCCUAAGGAGAAGACUGCGGGUUCGAGUCCAGUACGGACCG [C11U G18A C62A A70C] | ≤ 0.5

[Q] For the variant shown here, GUUCCGUUGGCGUUAUGGUAACGCGUCUUCCGCCUAAGGAGAAGACUGCGGGUUCGUGUCCCGUACGGAACG [A14U C29U U32G A57U] , give the reported yeast fitness.
[A] ≤ 0.5

Every entry's value here was drawn from the RNAGym collection of RNA variant scans (doi:10.1126/science.aae0568).
